All values here come from patent US20120094909A1.

target: T1, human PCSK9 (proprotein convertase subtilisin kexin type 9) (human, UniProt Q8NBP7 31-692); experiment: FRET, competitor EGFA peptide
T1 construct: Directly immobilized (SPR ProteOn), biotinylated (BLI), or in solution, depending on the assay; also called hPCSK9
Measured pIC50 by item
Field pIC50 (float): negative decimal logarithm of the concentration in molar.

Worked cases, pIC50 given:
2382B09 (designed binder, Anti-PCSK9 Adnectin, His6-tagged) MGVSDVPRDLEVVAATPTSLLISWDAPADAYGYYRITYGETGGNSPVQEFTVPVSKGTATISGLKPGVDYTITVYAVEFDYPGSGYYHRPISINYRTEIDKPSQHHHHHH
8.42
1922G04(R25E) (designed binder, Anti-PCSK9 Adnectin, GSGS-His6 tail; the entry already carries the substitution) MGVSDVPRDLEVVAATPTSLLISWEPPSHAYGYYRITYGETGGNSPVQEFTVPIGKGTATISGLKPGVDYTITVYAVEYPWKGSGYYHRPISINYRTGSGSHHHHHH
8.46
2451H07 (designed binder, Anti-PCSK9 Adnectin, His6-tagged) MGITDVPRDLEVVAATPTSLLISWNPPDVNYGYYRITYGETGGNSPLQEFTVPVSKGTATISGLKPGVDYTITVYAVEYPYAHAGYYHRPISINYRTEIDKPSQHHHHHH
9.70

Query block: Identify measured pIC50 corresponding to 2382H09 (designed binder, Anti-PCSK9 Adnectin, His6-tagged) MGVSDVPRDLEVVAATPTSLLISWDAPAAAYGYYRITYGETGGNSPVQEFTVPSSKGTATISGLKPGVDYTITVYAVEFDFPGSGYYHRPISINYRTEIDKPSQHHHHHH
Result block: 9.05

Query block: Consider the binder 2381H09 (designed binder, Anti-PCSK9 Adnectin, His6-tagged) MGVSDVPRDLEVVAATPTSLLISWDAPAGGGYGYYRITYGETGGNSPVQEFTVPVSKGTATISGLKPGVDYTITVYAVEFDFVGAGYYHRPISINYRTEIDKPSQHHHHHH and give its recorded pIC50.
Result block: 8.47
